- MEASURED_ON: PI3Kα (Homo sapiens, UniProt P42336, H1047R)
- Sequence (P42336 whole entry H1047R): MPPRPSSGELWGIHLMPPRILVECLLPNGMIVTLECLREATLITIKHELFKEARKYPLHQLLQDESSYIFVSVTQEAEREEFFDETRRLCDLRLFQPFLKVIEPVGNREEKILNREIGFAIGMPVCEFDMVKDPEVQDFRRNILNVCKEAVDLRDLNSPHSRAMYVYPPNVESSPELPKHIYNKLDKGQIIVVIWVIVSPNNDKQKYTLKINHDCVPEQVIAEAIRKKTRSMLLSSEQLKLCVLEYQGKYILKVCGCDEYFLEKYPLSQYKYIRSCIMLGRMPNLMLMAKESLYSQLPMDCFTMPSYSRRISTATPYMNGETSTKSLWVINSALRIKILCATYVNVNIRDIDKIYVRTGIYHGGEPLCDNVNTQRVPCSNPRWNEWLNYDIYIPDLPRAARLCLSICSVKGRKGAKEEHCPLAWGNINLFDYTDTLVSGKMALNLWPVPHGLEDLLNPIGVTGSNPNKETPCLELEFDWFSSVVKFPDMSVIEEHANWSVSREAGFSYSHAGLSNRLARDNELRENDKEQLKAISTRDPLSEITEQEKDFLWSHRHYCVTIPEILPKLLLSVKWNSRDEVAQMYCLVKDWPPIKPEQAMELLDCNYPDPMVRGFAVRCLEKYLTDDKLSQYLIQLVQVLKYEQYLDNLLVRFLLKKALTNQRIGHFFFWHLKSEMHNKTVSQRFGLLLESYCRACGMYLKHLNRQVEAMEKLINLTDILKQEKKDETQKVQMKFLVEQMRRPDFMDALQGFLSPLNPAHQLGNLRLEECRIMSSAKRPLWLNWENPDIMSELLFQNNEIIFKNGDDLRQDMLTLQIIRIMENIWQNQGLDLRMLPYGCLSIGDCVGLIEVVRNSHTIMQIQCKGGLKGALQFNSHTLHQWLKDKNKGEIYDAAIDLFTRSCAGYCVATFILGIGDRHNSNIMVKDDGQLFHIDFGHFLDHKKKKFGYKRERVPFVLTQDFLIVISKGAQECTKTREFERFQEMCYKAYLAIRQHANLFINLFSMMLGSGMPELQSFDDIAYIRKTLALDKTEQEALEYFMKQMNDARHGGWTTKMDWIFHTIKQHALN
- Sequence (P27986 whole entry partner): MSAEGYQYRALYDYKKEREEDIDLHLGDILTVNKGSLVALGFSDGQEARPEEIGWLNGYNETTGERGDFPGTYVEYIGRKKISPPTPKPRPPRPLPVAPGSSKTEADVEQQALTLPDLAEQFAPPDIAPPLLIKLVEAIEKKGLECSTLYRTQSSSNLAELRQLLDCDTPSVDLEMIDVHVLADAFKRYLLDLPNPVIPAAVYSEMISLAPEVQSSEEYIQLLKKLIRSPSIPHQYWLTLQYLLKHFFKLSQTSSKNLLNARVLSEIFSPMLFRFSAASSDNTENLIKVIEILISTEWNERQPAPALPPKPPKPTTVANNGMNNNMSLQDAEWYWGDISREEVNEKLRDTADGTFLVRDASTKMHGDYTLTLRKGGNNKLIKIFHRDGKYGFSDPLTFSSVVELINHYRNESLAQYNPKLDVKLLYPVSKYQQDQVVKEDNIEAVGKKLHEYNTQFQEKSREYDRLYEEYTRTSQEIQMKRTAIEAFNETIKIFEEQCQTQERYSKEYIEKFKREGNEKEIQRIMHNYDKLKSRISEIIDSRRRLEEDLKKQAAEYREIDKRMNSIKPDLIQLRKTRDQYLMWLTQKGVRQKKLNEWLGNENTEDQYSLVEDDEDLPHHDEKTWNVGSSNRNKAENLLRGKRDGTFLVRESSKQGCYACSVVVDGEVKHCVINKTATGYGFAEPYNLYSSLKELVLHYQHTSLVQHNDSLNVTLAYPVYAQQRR
- TEST_DESCRIPTION: ADP-Glo IC50 assay
- EXPERIMENTAL_PARAMETERS: class symbols; key not given
pIC50: −log10 of the molar value.
MEASURED_ATTRIBUTE: pIC50

For orientation, consider the following solved cases.
COMPOUND | pIC50
O=C1CCC(N2C(=O)c3ccc(NCCCCNC(=O)c4cnc(Nc5cc(F)ccc5Cl)c(NC(=O)c5csc6ccccc56)c4)cc3C2=O)C(=O)N1 (stereo not drawn) [Example I-97] | 6.30 to 7.00
Cc1ccccc1Nc1ncc(C(=O)NCCCC[C@H](N)C(=O)N[C@H](C(=O)N2C[C@H](O)C[C@H]2C(=O)NCc2ccc(-c3scnc3C)cc2)C(C)(C)C)cc1NC(=O)c1csc2ccccc12 [Example I-74] | 5.00 to 6.00
Cc1cc([C@H](C)Nc2ccccc2C(=O)O)c2oc(N3CCN(C(=O)CCCCCNc4cccc5c4C(=O)N(C4CCC(=O)NC4=O)C5=O)CC3)cc(=O)c2c1 (stereo partly drawn) [Example I-137] | 5.00 to 6.00

Q: Give the measured pIC50 of Cc1ccccc1Nc1ncc(C(=O)NCCCCC(=O)N[C@H](C(=O)N2C[C@H](O)C[C@H]2C(=O)NCc2ccc(-c3scnc3C)cc2)C(C)(C)C)cc1NC(=O)c1csc2ccccc12 [Example I-43] .
A: 6.00 to 6.30

Q: Next up: Cc1ccccc1Nc1ncc(C(=O)NCCCCCCNc2cccc3c2C(=O)N(C2CCC(=O)NC2=O)C3=O)cc1NC(=O)c1csc2ccccc12 (stereo not drawn) [Example I-59]
A: 6.00 to 6.30

Q: Also check Cc1ccccc1Nc1ncc(C(=O)NCCCCCCCCCC(=O)N[C@H](C(=O)N2C[C@H](O)C[C@H]2C(=O)NCc2ccc(-c3scnc3C)cc2)C(C)(C)C)cc1NC(=O)c1csc2ccccc12 [Example I-10]
A: 6.30 to 7.00

Q: Also Cc1ccccc1Nc1ncc(C(=O)NCCCNC(=O)c2ccc3c(c2)CN(C2CCC(=O)NC2=O)C3=O)cc1NC(=O)c1csc2ccccc12 (stereo not drawn) [Example I-61] , if possible.
A: 6.30 to 7.00

Q: // query: Cc1cc([C@@H](C)Nc2ccccc2C(=O)O)c2oc(N3CCN(C(=O)CCOCCNc4cccc5c4C(=O)N(C4CCC(=O)NC4=O)C5=O)CC3)cc(=O)c2c1 (stereo partly drawn) [Example I-145]
A: 5.00 to 6.00
